The measurements presented in this section are drawn from ChEMBL document CHEMBL1140728.

Target or system: Neuropeptide S receptor (Mus musculus)
Sequence (Q8BZP8 whole entry): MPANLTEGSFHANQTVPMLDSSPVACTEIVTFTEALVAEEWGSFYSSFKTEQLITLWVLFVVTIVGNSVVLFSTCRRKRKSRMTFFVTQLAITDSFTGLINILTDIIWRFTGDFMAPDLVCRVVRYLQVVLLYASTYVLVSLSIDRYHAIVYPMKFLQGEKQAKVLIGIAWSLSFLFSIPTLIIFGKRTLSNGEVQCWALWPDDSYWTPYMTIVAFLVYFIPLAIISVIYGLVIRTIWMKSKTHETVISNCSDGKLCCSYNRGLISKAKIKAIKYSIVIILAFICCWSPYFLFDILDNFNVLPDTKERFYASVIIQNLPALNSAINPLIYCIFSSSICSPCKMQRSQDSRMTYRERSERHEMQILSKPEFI
Experiment description: Agonist activity at mouse recombinant NPS receptor expressed in HEK293 cells assessed as intracellular calcium mobilization
Non-standard residues stand in square brackets, D forms with d. Residues, ends and D or L forms follow the SMILES beside them. Nphe = O=C(O)CNCc1ccccc1
Experimental readout: EC50 (nM)

[
  {
    "Molecule": "CSCC[C@H](NC(=O)CNC(=O)[C@@H](NC(=O)CNC(=O)[C@@H](NC(=O)CNC(=O)[C@H](CC(N)=O)NC(=O)[C@H](CCCNC(=N)N)NC(=O)CN(Cc1ccccc1)C(=O)[C@@H](N)CO)C(C)C)[C@@H](C)O)C(=O)N[C@@H](CCCCN)C(=O)N[C@@H](CCCCN)C(=O)N[C@H](C(=O)N[C@@H](CO)C(=O)N[C@@H](Cc1ccccc1)C(=O)N[C@@H](CCC(N)=O)C(=O)N[C@@H](CCCNC(=N)N)C(=O)N[C@@H](C)C(=O)N[C@@H](CCCCN)C(=O)N[C@@H](CO)C(=O)O)[C@@H](C)O (H-S[Nphe]RNGVGTGMKKTSFQRAKS-OH)",
    "Measured": 15.5
  }
]

----------
Target or system: UniProtKB Q8BZP8
Sequence (whole entry): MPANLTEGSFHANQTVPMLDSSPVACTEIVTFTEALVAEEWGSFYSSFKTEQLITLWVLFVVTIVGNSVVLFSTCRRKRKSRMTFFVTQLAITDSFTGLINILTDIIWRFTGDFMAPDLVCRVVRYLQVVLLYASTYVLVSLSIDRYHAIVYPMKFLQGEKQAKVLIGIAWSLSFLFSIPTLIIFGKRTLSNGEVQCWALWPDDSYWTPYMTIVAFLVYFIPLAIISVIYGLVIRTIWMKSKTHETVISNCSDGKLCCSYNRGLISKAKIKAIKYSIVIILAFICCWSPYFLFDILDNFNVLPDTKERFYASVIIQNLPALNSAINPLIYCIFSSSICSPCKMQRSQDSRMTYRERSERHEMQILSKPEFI
Experiment description: Agonist activity at mouse recombinant NPS receptor expressed in HEK293 cells assessed as intracellular calcium mobilization relative to baseline
Format: functional, cell-based
Non-standard residues stand in square brackets, D forms with d. Residues, ends and D or L forms follow the SMILES beside them. 1Nal = N[C@@H](Cc1cccc2ccccc12)C(=O)O; Phe(2-Me) = Cc1ccccc1C[C@H](N)C(=O)O; hPhe = N[C@@H](CCc1ccccc1)C(=O)O; Aic = NC1(C(=O)O)Cc2ccccc2C1

[
  {
    "Compound": "CSCC[C@H](NC(=O)CNC(=O)[C@@H](NC(=O)CNC(=O)[C@@H](NC(=O)CNC(=O)[C@H](CC(N)=O)NC(=O)[C@H](CCCNC(=N)N)NC(=O)[C@H](Cc1cccc2ccccc12)NC(=O)[C@@H](N)CO)C(C)C)[C@@H](C)O)C(=O)N[C@@H](CCCCN)C(=O)N[C@@H](CCCCN)C(=O)N[C@H](C(=O)N[C@@H](CO)C(=O)N[C@@H](Cc1ccccc1)C(=O)N[C@@H](CCC(N)=O)C(=O)N[C@@H](CCCNC(=N)N)C(=O)N[C@@H](C)C(=O)N[C@@H](CCCCN)C(=O)N[C@@H](CO)C(=O)O)[C@@H](C)O (H-S[1Nal]RNGVGTGMKKTSFQRAKS-OH)",
    "Output unit": "%",
    "Emax": 232
  },
  {
    "Compound": "CSCC[C@H](NC(=O)CNC(=O)[C@@H](NC(=O)CNC(=O)[C@@H](NC(=O)CNC(=O)[C@H](CC(N)=O)NC(=O)[C@H](CCCNC(=N)N)NC(=O)[C@H](Cc1ccccc1C)NC(=O)[C@@H](N)CO)C(C)C)[C@@H](C)O)C(=O)N[C@@H](CCCCN)C(=O)N[C@@H](CCCCN)C(=O)N[C@H](C(=O)N[C@@H](CO)C(=O)N[C@@H](Cc1ccccc1)C(=O)N[C@@H](CCC(N)=O)C(=O)N[C@@H](CCCNC(=N)N)C(=O)N[C@@H](C)C(=O)N[C@@H](CCCCN)C(=O)N[C@@H](CO)C(=O)O)[C@@H](C)O (H-S[Phe(2-Me)]RNGVGTGMKKTSFQRAKS-OH)",
    "Output unit": "%",
    "Emax": 222
  },
  {
    "Compound": "CSCC[C@H](NC(=O)CNC(=O)[C@@H](NC(=O)CNC(=O)[C@@H](NC(=O)CNC(=O)[C@H](CC(N)=O)NC(=O)[C@H](CCCNC(=N)N)NC(=O)[C@H](CCc1ccccc1)NC(=O)[C@@H](N)CO)C(C)C)[C@@H](C)O)C(=O)N[C@@H](CCCCN)C(=O)N[C@@H](CCCCN)C(=O)N[C@H](C(=O)N[C@@H](CO)C(=O)N[C@@H](Cc1ccccc1)C(=O)N[C@@H](CCC(N)=O)C(=O)N[C@@H](CCCNC(=N)N)C(=O)N[C@@H](C)C(=O)N[C@@H](CCCCN)C(=O)N[C@@H](CO)C(=O)O)[C@@H](C)O (H-S[hPhe]RNGVGTGMKKTSFQRAKS-OH)",
    "Output unit": "%",
    "Emax": 216
  },
  {
    "Compound": "CSCC[C@H](NC(=O)CNC(=O)[C@@H](NC(=O)CNC(=O)[C@@H](NC(=O)CNC(=O)[C@H](CC(N)=O)NC(=O)[C@H](CCCNC(=N)N)NC(=O)C1(NC(=O)[C@@H](N)CO)Cc2ccccc2C1)C(C)C)[C@@H](C)O)C(=O)N[C@@H](CCCCN)C(=O)N[C@@H](CCCCN)C(=O)N[C@H](C(=O)N[C@@H](CO)C(=O)N[C@@H](Cc1ccccc1)C(=O)N[C@@H](CCC(N)=O)C(=O)N[C@@H](CCCNC(=N)N)C(=O)N[C@@H](C)C(=O)N[C@@H](CCCCN)C(=O)N[C@@H](CO)C(=O)O)[C@@H](C)O (H-S[Aic]RNGVGTGMKKTSFQRAKS-OH)",
    "Output unit": "%",
    "Emax": 211
  }
]

----------
Target or system: Neuropeptide S receptor (Mus musculus)
Experiment description: Agonist activity at mouse recombinant NPS receptor expressed in HEK293 cells assessed as intracellular calcium mobilization
pEC50: −log10 of the molar value. Non-standard residues stand in square brackets, D forms with d. Residues, ends and D or L forms follow the SMILES beside them. Phe(4-F) = N[C@@H](Cc1ccc(F)cc1)C(=O)O; Phe(4-I) = N[C@@H](Cc1ccc(I)cc1)C(=O)O; 1Nal = N[C@@H](Cc1cccc2ccccc12)C(=O)O; Atc(2S) = N[C@@]1(C(=O)O)CCc2ccccc2C1; Phe(2-Me) = Cc1ccccc1C[C@H](N)C(=O)O; hPhe = N[C@@H](CCc1ccccc1)C(=O)O; Tic = O=C(O)[C@@H]1Cc2ccccc2CN1; Aic = NC1(C(=O)O)Cc2ccccc2C1

[
  {
    "Compound": "CSCC[C@H](NC(=O)CNC(=O)[C@@H](NC(=O)CNC(=O)[C@@H](NC(=O)CNC(=O)[C@H](CC(N)=O)NC(=O)[C@H](CCCNC(=N)N)NC(=O)[C@H](CCc1ccccc1)NC(=O)[C@@H](N)CO)C(C)C)[C@@H](C)O)C(=O)N[C@@H](CCCCN)C(=O)N[C@@H](CCCCN)C(=O)N[C@H](C(=O)N[C@@H](CO)C(=O)N[C@@H](Cc1ccccc1)C(=O)N[C@@H](CCC(N)=O)C(=O)N[C@@H](CCCNC(=N)N)C(=O)N[C@@H](C)C(=O)N[C@@H](CCCCN)C(=O)N[C@@H](CO)C(=O)O)[C@@H](C)O (H-S[hPhe]RNGVGTGMKKTSFQRAKS-OH)",
    "pEC50": 8.38
  },
  {
    "Compound": "CSCC[C@H](NC(=O)CNC(=O)[C@@H](NC(=O)CNC(=O)[C@@H](NC(=O)CNC(=O)[C@H](CC(N)=O)NC(=O)[C@H](CCCNC(=N)N)NC(=O)[C@@H]1Cc2ccccc2CN1C(=O)[C@@H](N)CO)C(C)C)[C@@H](C)O)C(=O)N[C@@H](CCCCN)C(=O)N[C@@H](CCCCN)C(=O)N[C@H](C(=O)N[C@@H](CO)C(=O)N[C@@H](Cc1ccccc1)C(=O)N[C@@H](CCC(N)=O)C(=O)N[C@@H](CCCNC(=N)N)C(=O)N[C@@H](C)C(=O)N[C@@H](CCCCN)C(=O)N[C@@H](CO)C(=O)O)[C@@H](C)O (H-S[Tic]RNGVGTGMKKTSFQRAKS-OH)",
    "pEC50": 8.09
  },
  {
    "Compound": "CSCC[C@H](NC(=O)CNC(=O)[C@@H](NC(=O)CNC(=O)[C@@H](NC(=O)CNC(=O)[C@H](CC(N)=O)NC(=O)[C@H](CCCNC(=N)N)NC(=O)[C@H](Cc1ccc(I)cc1)NC(=O)[C@@H](N)CO)C(C)C)[C@@H](C)O)C(=O)N[C@@H](CCCCN)C(=O)N[C@@H](CCCCN)C(=O)N[C@H](C(=O)N[C@@H](CO)C(=O)N[C@@H](Cc1ccccc1)C(=O)N[C@@H](CCC(N)=O)C(=O)N[C@@H](CCCNC(=N)N)C(=O)N[C@@H](C)C(=O)N[C@@H](CCCCN)C(=O)N[C@@H](CO)C(=O)O)[C@@H](C)O (H-S[Phe(4-I)]RNGVGTGMKKTSFQRAKS-OH)",
    "pEC50": 8.75
  },
  {
    "Compound": "CSCC[C@H](NC(=O)CNC(=O)[C@@H](NC(=O)CNC(=O)[C@@H](NC(=O)CNC(=O)[C@H](CC(N)=O)NC(=O)[C@H](CCCNC(=N)N)NC(=O)[C@H](Cc1ccccc1C)NC(=O)[C@@H](N)CO)C(C)C)[C@@H](C)O)C(=O)N[C@@H](CCCCN)C(=O)N[C@@H](CCCCN)C(=O)N[C@H](C(=O)N[C@@H](CO)C(=O)N[C@@H](Cc1ccccc1)C(=O)N[C@@H](CCC(N)=O)C(=O)N[C@@H](CCCNC(=N)N)C(=O)N[C@@H](C)C(=O)N[C@@H](CCCCN)C(=O)N[C@@H](CO)C(=O)O)[C@@H](C)O (H-S[Phe(2-Me)]RNGVGTGMKKTSFQRAKS-OH)",
    "pEC50": 8.73
  },
  {
    "Compound": "CSCC[C@H](NC(=O)CNC(=O)[C@@H](NC(=O)CNC(=O)[C@@H](NC(=O)CNC(=O)[C@H](CC(N)=O)NC(=O)[C@H](CCCNC(=N)N)NC(=O)[C@H](Cc1cccc2ccccc12)NC(=O)[C@@H](N)CO)C(C)C)[C@@H](C)O)C(=O)N[C@@H](CCCCN)C(=O)N[C@@H](CCCCN)C(=O)N[C@H](C(=O)N[C@@H](CO)C(=O)N[C@@H](Cc1ccccc1)C(=O)N[C@@H](CCC(N)=O)C(=O)N[C@@H](CCCNC(=N)N)C(=O)N[C@@H](C)C(=O)N[C@@H](CCCCN)C(=O)N[C@@H](CO)C(=O)O)[C@@H](C)O (H-S[1Nal]RNGVGTGMKKTSFQRAKS-OH)",
    "pEC50": 8.71
  },
  {
    "Compound": "CSCC[C@H](NC(=O)CNC(=O)[C@@H](NC(=O)CNC(=O)[C@@H](NC(=O)CNC(=O)[C@H](CC(N)=O)NC(=O)[C@H](CCCNC(=N)N)NC(=O)[C@]1(NC(=O)[C@@H](N)CO)CCc2ccccc2C1)C(C)C)[C@@H](C)O)C(=O)N[C@@H](CCCCN)C(=O)N[C@@H](CCCCN)C(=O)N[C@H](C(=O)N[C@@H](CO)C(=O)N[C@@H](Cc1ccccc1)C(=O)N[C@@H](CCC(N)=O)C(=O)N[C@@H](CCCNC(=N)N)C(=O)N[C@@H](C)C(=O)N[C@@H](CCCCN)C(=O)N[C@@H](CO)C(=O)O)[C@@H](C)O (H-S[Atc(2S)]RNGVGTGMKKTSFQRAKS-OH)",
    "pEC50": 7.95
  },
  {
    "Compound": "CSCC[C@H](NC(=O)CNC(=O)[C@@H](NC(=O)CNC(=O)[C@@H](NC(=O)CNC(=O)[C@H](CC(N)=O)NC(=O)[C@H](CCCNC(=N)N)NC(=O)C1(NC(=O)[C@@H](N)CO)Cc2ccccc2C1)C(C)C)[C@@H](C)O)C(=O)N[C@@H](CCCCN)C(=O)N[C@@H](CCCCN)C(=O)N[C@H](C(=O)N[C@@H](CO)C(=O)N[C@@H](Cc1ccccc1)C(=O)N[C@@H](CCC(N)=O)C(=O)N[C@@H](CCCNC(=N)N)C(=O)N[C@@H](C)C(=O)N[C@@H](CCCCN)C(=O)N[C@@H](CO)C(=O)O)[C@@H](C)O (H-S[Aic]RNGVGTGMKKTSFQRAKS-OH)",
    "pEC50": 7.47
  },
  {
    "Compound": "CSCC[C@H](NC(=O)CNC(=O)[C@@H](NC(=O)CNC(=O)[C@@H](NC(=O)CNC(=O)[C@H](CC(N)=O)NC(=O)[C@H](CCCNC(=N)N)NC(=O)[C@H](Cc1ccc(F)cc1)NC(=O)[C@@H](N)CO)C(C)C)[C@@H](C)O)C(=O)N[C@@H](CCCCN)C(=O)N[C@@H](CCCCN)C(=O)N[C@H](C(=O)N[C@@H](CO)C(=O)N[C@@H](Cc1ccccc1)C(=O)N[C@@H](CCC(N)=O)C(=O)N[C@@H](CCCNC(=N)N)C(=O)N[C@@H](C)C(=O)N[C@@H](CCCCN)C(=O)N[C@@H](CO)C(=O)O)[C@@H](C)O (H-S[Phe(4-F)]RNGVGTGMKKTSFQRAKS-OH)",
    "pEC50": 8.96
  }
]
